The origin of these recorded values is a melting point compilation (Tetko et al.; mined from patent text by program, amines drawn as free bases though some values may be those of a salt).

MOLECULE | melting point
CN1C(=O)N(c2ccc(Cl)cc2)S(=O)(=O)c2ccc(OCC3CCCCC3)cc21 | 127 to 129 °C
Cc1cccc(C2=NCSC2(c2ccnc(C)c2)N2CCOC2=O)c1 (stereo not given) | 80 to 82 °C
O=Cc1c[nH]c(=O)c2ccccc12 | 222 to 223 °C
CS(=O)(=O)N1CCN(c2ccc(O)cc2)CC1 | 205 °C
CC1NC(=O)NN=C1c1ccc(NC(=O)CN2CCOCC2)cc1 (stereo not given) | 244 to 247 °C
C=CCOC(=O)c1ccc(C(=O)NCc2ccc3c(c2CO)C(C)(C)CCC3(C)C)cc1 | 140 to 145 °C
COc1ccc(N2C(=O)C3=C(CCCC3)C2CC(=O)O)cc1 (stereo not given) | 203 to 204 °C
Cn1nc(-c2ccccc2)c(O)c1-c1ccccc1 | 157 to 160 °C
CCN(CC)CCOc1ccc(Nc2ncc3c(n2)N(C)C(=O)N(c2cc(Cl)ccc2Cl)C3)cc1 | 138 °C
COC(=O)c1ccc(-c2nc(-c3ccc(OC(F)F)cc3)cs2)cc1 | 146 to 148 °C
C=CC(=O)Oc1c(C(C)c2cc(C(C)(C)C)cc(C(C)(C)C)c2O)cc(C(C)(C)C)cc1C(C)(C)C (stereo not given) | 190 to 192 °C
C1=C(/C=C/c2ccccc2)CCN(Cc2c[nH]c3ccccc23)C1 | 191 to 193 °C
Cc1c(SCc2cccs2)ccnc1CSc1nc2ccccc2[nH]1 | 131 to 133 °C
O=C(Nc1cc(-c2ccnc3c(C(=O)c4cccs4)cnn23)ccc1Cl)c1ccccc1 | 217 to 218 °C
CC(=O)N1CCN=C1Nc1cc(C)nn1-c1ccc(F)cc1 | 189 to 191 °C
CN1CCC(Nc2nc3ncnc(O)c3n2Cc2ccc(F)cc2)CC1 | 256 °C
CCC(CC)(c1ccccc1F)c1c[nH]c2c(NS(C)(=O)=O)cccc12 | 144 to 146 °C
O=C(O)CCC(=O)Nc1ccc2[nH]c(=O)c3ccccc3c2c1 | 224 to 228 °C
Nc1nnc(SCC(=O)C23CC4CC(CC(C4)C2)C3)s1 | 198 to 199 °C
CN(C)c1ccc(-n2c(CC(=O)O)c(C(=O)O)c3cc(Oc4ccc(OC(F)(F)F)cc4)ccc32)cc1 | 188 to 192 °C

----------
MEASURED_ENDPOINT: melting point

COMPOUND | OBSERVED
O=C1NC(=O)C(Cc2ccc(OCC34CC5CC(CC(C5)C3)C4)cc2)S1 (stereo not given) | 188 to 191 °C
CCOCCn1c(CN2CCCN(C)CC2)nc2ccccc21 | 119 to 122 °C
COCc1ncc(OC)c(=O)[nH]1 | 61 °C
Cc1cc(C#N)sc1-c1ccc2c(c1)C(C)(C)OC(C(F)(F)F)N2 (stereo not given) | 97 to 98 °C
CC(C)CCN1C(=O)C(NC(=O)Nc2cccc(N(C)C)c2)C(=O)N(CC23CC4CC(CC(C4)C2)C3)c2ccccc21 (stereo not given) | 226 to 227 °C
c1cc(-c2cn3c(n2)CCC3)ccn1 | 140 to 141 °C
C=CC[C@@H]1C[C@@H](COc2ccc(-c3ccc(C#N)cc3)cc2)NC1=O | 99 to 101 °C
O=C(O)c1cn(C2CC2)c2cc(N3CCNC(c4cc5ccccc5o4)C3)c(F)cc2c1=O (stereo not given) | 203 to 206 °C
O=Cc1c(-c2ccccc2Cl)ccc2c1OCO2 | 84 to 86 °C
COc1ccc2cc(C(C)C(=O)NCCN(O)C(N)=O)ccc2c1 (stereo not given) | 162 °C
Cc1cc(-n2ccc(OCCc3ccccc3)cc2=O)sc1C(=O)NCc1ccccc1 | 159 to 160 °C
ON=C1CCCCCCC1Cc1ccccc1 (stereo not given) | 117 to 119 °C
CCCCN(CCCC)Cc1nc(-c2ncn3c2CN(C)C(=O)c2ccccc2-3)no1 | 105 to 110 °C
Nc1nc(N)c2ncn(/C=C3/CC3(CO)CO)c2n1 | 219 to 220 °C
C#Cc1ccc(S(N)(=O)=O)s1 | 114 to 116 °C
COc1ccc(COc2ccc(C(=O)Nc3ccc4cc(CN5CCCC5)cnc4c3C)cc2)cc1 | 192 to 193 °C
COc1ccc2cc(C3CCN(CC(O)COc4ccccc4C=C4CCOC4=O)CC3)ccc2c1 (stereo not given) | 148 to 150 °C
CC(C)CN(C=Nc1nnnc2c1ncn2C1CC(O)C(CO)O1)CC(C)C (stereo not given) | 138 to 140 °C
CC(C)CNc1sc(-c2cc[nH]n2)c2c1C(=O)CC(C)(C)C2 | 208 to 210 °C
CC(C)(C)OC(=O)N(C(=O)OC(C)(C)C)c1sc(-c2cncc(F)c2)nc1F | 143 °C
O=C(NCc1ccc(Cl)cc1)c1cn2c3c(cc(CN4CCOCC4)cc3c1=O)OC(CN1CCCC1)C2 (stereo not given) | 210 to 212 °C
CCCOCCOc1ccc(-c2ccc3c(c2)C=C(C(=O)O)CCS3(=O)=O)cc1 | 176 to 179 °C
CC(C)c1ccc(N2C(=O)CN(c3cccc(C(=O)O)c3)C2=O)cc1 | 249 to 252 °C
COc1ccc(CC(C)(C)C(=O)O)cc1C(=O)NCc1ccc(C(F)(F)F)cc1 | 151 to 152 °C
CN1C(=O)CN(C2=CC(C)(C)Oc3ccc(C#N)cc32)C1=O | 188 to 190 °C
CC(=O)OCC(=O)C1(OC(C)=O)C(C)CC2C3CCC4=CC(=O)C=CC4(C)C3(F)C=CC21C (stereo not given) | 135 to 136 °C
O=C(CC1CCCCC1)Nc1ccc2oc3c(c2c1)CCCCC3 | 188 to 189 °C
COc1c(Cl)ccc(-c2cc(N)c(Cl)c(C(=O)OCc3ccc(Cl)cc3Cl)n2)c1F | 165 to 168 °C
Cc1ccc(-c2ccc(Sc3ccccc3)s2)cc1 | 85 to 86 °C
CCN(CC)CCOC(=O)N1CCC(NC(=O)c2ccccc2)CC1 | 78 to 82 °C
COc1ccc(C2CCN(c3c(C)c(C)c4c(c3C)C(c3ccc(C(C)C)cc3)C(C)(C)O4)CC2)cc1OC (stereo not given) | 129 to 132 °C
COc1cc(C(=O)NC(C)(C)C)ccc1S(=O)(=O)N1C(=O)C(N)(c2ccccc2Cl)c2cc(Cl)ccc21 (stereo not given) | 263 to 265 °C
CN(C)c1cc(-c2c[nH]c(N)n2)ccn1 | > 270 °C
CC=C1CCC2C3CCC4CC(O)CCC4(C)C3C(=NO)CC12C (stereo not given) | 233 to 235 °C
CC(=O)Oc1ccccc1[C@@H]1SC(C)(C)[C@H](C(=O)O)N1C(C)=O | 214 to 216 °C
CNc1nc2cccc(C(=O)O)c2s1 | > 330 °C
O=C(OCc1ccccc1)c1cc(C(=O)OCc2ccccc2)n(CCBr)n1 | 112 °C
CC(Oc1ccc2oc3cc(Cl)ccc3c2c1)C(=O)O (stereo not given) | 170 to 172 °C
CC(C)n1nc(-c2[nH]c(=O)c(N)nc2-c2ccccc2)ccc1=O | > 250 °C
CC1C2=CCC3C(CCC4(C)C(O)CCC34)C2(C)CCC1O (stereo not given) | 210 to 214 °C
